Test system: ASPC1
measurement.protocol: Cytotoxicity against human ASPC1 cells assessed as reduction in cell growth by MTT assay
Assay type: functional, cell-based
pIC50: −log10 of the molar value.
Collected pIC50 values appear next to each entry.
endpoint.label: pIC50

> print(dat)
                                   molecule  assay.result
1  CC1=CCC[C@@H](C)[C@@]1(C)CC/C(C)=C/CCC1=CC(=O)OC1        < 4.52
2  CC(C)=CCC[C@@]1(C)CCC=C2[C@@H]1CC[C@H](C)[C@]2(C)CCC1=CC(=O)OC1        < 4.52
3  CO[C@H](C[C@]1(C)C2=CC[C@H]3C(C)(C)CCC[C@]3(C)[C@H]2CC[C@@H]1C)C1=CC(=O)O[C@H]1O          5.33
4  C[C@@H]1CC[C@@H]2C(=CC[C@H]3C(C)(C)CCC[C@@]23C)[C@]1(C)C[C@@H](O)C1=CC(=O)OC1        < 4.52
5  C[C@H]1CC[C@H]2C(=CC[C@H]3C(C)(C)CCC[C@]23C)[C@@]1(C)/C=C/C1=CC(=O)OC1O (some centres undefined)          4.65
6  CC(=O)O[C@@H]1C[C@@H]2[C@@]3(C)CCCC(C)(C)[C@@H]3CC[C@@]2(C)[C@@H]2C[C@@H](O)C3=C([C@H](O)OC3=O)[C@@]12C          4.75
7  C[C@@H]1CC[C@@H]2C(=CC[C@@H]3C(C)(C)CCC[C@@]23C)[C@]1(C)C[C@H](O)C1=CC(=O)OC1        < 4.52
8  COc1cccc2c1C(=O)c1c(O)c3c(c(O)c1C2=O)C[C@@](O)(C(=O)CO)C[C@@H]3O[C@H]1C[C@H](N)[C@H](O)[C@H](C)O1        > 6.00
9  C=C(C)CCCC1=CCC[C@H](C)[C@]1(C)CCC1=CC(=O)OC1O (some centres undefined)        < 4.52
